From: ChEMBL document CHEMBL6087435

- protocol_details: Cytotoxicity against human HEK293 cells assessed as cell viability at 100 uM incubated for 24 hrs by Hoechst 33258 staining based flow cytometry
- Assay type: toxicity
- condition_info: read-out: Activity
Please respond with reported viability at 24 h, 100 µM for every item in the list.

Below, 2 compounds whose answers are already recorded.
[[record]]
compound = "CCOP(=O)(OCCOC(C)=O)Oc1ccc(COC(=O)N[C@@H]2[C@H](O)[C@H](O[C@H]3/C=C/C=C/C=C/C=C/C=C/C=C/C=C/[C@H](C)[C@@H](O)[C@@H](C)[C@H](C)OC(=O)C[C@H](O)C[C@H](O)CC[C@@H](O)[C@H](O)C[C@H](O)C[C@]4(O)C[C@H](O)[C@@H](C(=O)O)[C@H](C3)O4)O[C@H](C)[C@H]2O)cc1 (stereo partly drawn)"
reading = "~86%"

[[record]]
compound = "C[C@@H]1[C@H](O)[C@@H](C)/C=C/C=C/C=C/C=C/C=C/C=C/C=C/[C@H](O[C@@H]2O[C@H](C)[C@@H](O)[C@H](N)[C@@H]2O)C[C@@H]2O[C@](O)(C[C@@H](O)C[C@@H](O)[C@H](O)CC[C@@H](O)C[C@@H](O)CC(=O)O[C@H]1C)C[C@H](O)[C@H]2C(=O)O [AMPHOTERICIN B]"
reading = "0%"


Pending compound:
Inquiry: Supply measured viability at 24 h, 100 µM of CCOC(=O)[C@H](C)OP(=O)(OCC)Oc1ccc(COC(=O)N[C@@H]2[C@H](O)[C@H](O[C@H]3/C=C/C=C/C=C/C=C/C=C/C=C/C=C/[C@H](C)[C@@H](O)[C@@H](C)[C@H](C)OC(=O)C[C@H](O)C[C@H](O)CC[C@@H](O)[C@H](O)C[C@H](O)C[C@]4(O)C[C@H](O)[C@@H](C(=O)O)[C@H](C3)O4)O[C@H](C)[C@H]2O)cc1 (stereo partly drawn) in your reply.
Reply text: ~78%
